Hey, just so you know, these numbers are from ChEMBL document CHEMBL1201862.

System: SK-OV-3
measurement notes: NCI tumour cell line growth inhibition, 48 h
The source made the active and inactive calls. No stated cut-off is given here; in the data, active = GI50 up to about 1.1 µM and inactive = higher.
Answer each item with its documented GI50.

Qu. If you can, please state the reported GI50 value of "CCN(CCCN(CC)C(=O)Nc1ccccc1)C(=O)Nc1ccccc1" .
Ans. > 100 µM (inactive)

Qu. If you can, please state the reported GI50 value of "O=P(c1ccccc1)(c1ccccc1)c1ccc2c(c1)OCCOCCOCCOCCO2" .
Ans. > 100 µM (inactive)

Qu. If you can, please state the reported GI50 value of "C/C=C(/I)CBr" .
Ans. 30.8 µM (inactive)

Qu. If you can, please state the reported GI50 value of COC(=O)C(CC(C)=O)CS(=O)(=O)CC(=O)C(=O)Nc1cccc([N+](=O)[O-])c1 (stereo not given) .
Ans. > 100 µM (inactive)

Qu. If you can, please state the reported GI50 value of "N#Cc1c(CC(=O)O)cc(=O)n2c1[nH]c1ccccc12" .
Ans. > 100 µM (inactive)

###

System: RPMI-8226
measurement notes: NCI tumour cell line growth inhibition, 48 h
The source made the active and inactive calls. Cut-off read from the data, not from the text of the source: active = GI50 up to about 1.1 µM and inactive = higher.
Select the correct class. Options are active, inactive and nothing else.

Qu. Which outcome was entered for the compound "CCCS(=O)(=O)O" in this test?
Ans. inactive

Qu. Which outcome was entered for the compound "CCN(CCCN(CC)C(=O)Nc1ccccc1)C(=O)Nc1ccccc1" in this test?
Ans. inactive

Qu. Which outcome was entered for the compound CC1C(=O)N(c2ccccc2)NC12CCCc1ccccc12 (stereo unspecified) in this test?
Ans. inactive

Qu. Which outcome was entered for the compound Cc1ccc(S(=O)(=O)[N-]C2C(=O)c3ccccc3C(=O)C2[n+]2cccc(C(N)=O)c2)cc1 (stereo unspecified) in this test?
Ans. inactive

Qu. Which outcome was entered for the compound CSCSCC(CO)NC(=O)/C=C/c1c(C)nc(O)nc1O (stereo unspecified) in this test?
Ans. inactive

Qu. Which outcome was entered for the compound CCC1(OC(=O)CN)C(=O)OCc2c1cc1n(c2=O)Cc2cc3ccccc3nc2-1 (stereo unspecified) in this test?
Ans. active

Qu. Which outcome was entered for the compound "O=C(/C=C1\Nc2ccccc2N\C1=C\C(=O)c1ccc(Cl)cc1)c1ccccc1" in this test?
Ans. inactive

Qu. Which outcome was entered for the compound "Clc1ccc(-c2nnc(-c3nsc4ccccc34)o2)cc1" in this test?
Ans. inactive

Qu. Which outcome was entered for the compound "C(=N\OCCc1ccccc1)/c1cccnc1" in this test?
Ans. inactive

Qu. Which outcome was entered for the compound "Cc1ccc(NC(=S)NNC(=O)c2cc(-c3ccccc3)nc3ccccc23)cc1C" in this test?
Ans. inactive

Qu. Which outcome was entered for the compound "C/C(CC(=O)Nc1cccc([N+](=O)[O-])c1)=N/NC(N)=S" in this test?
Ans. inactive

###

Tested on: KM12
measurement notes: NCI tumour cell line growth inhibition, 48 h
Active and inactive are the calls of the source. Rule as the data show it: active = GI50 up to about 1.1 µM and inactive = higher.
measure name: GI50

Qu. If you can, please state the reported GI50 value of c1ccc2c(c1)-c1nc3ccccc3cc1C2N1CCOCC1 (stereo not drawn) .
Ans. > 100 µM (inactive)

Qu. If you can, please state the reported GI50 value of "CN(C)c1ccc(/C=C2\C[N+](C)(C)C/C(=C\c3ccc(N(C)C)cc3)C2=O)cc1" .
Ans. 6.14 µM (inactive)

Qu. If you can, please state the reported GI50 value of "CC(=C(C(=O)O)C(=O)O)c1cc(-c2cccs2)cc(-c2ccc(Cl)cc2)c1O" .
Ans. 9.04 µM (inactive)
